Below are log10 of IC50 values recorded for CK1δ (Homo sapiens (Human)).
Please keep in mind that the values are log10 of IC50 expressed in nM.

Before answering, review these 3 worked examples.
COCCn1cnc(-c2ccc(F)cc2)c1-c1ccc2nc(NC(=O)c3ccnc(F)c3)cn2n1 | -0.51
Cc1nc(-c2ccc(F)cc2)c(-c2ccc3nc(NC(=O)c4ncccn4)cn3n2)n1C | 0.80
Cc1nc(-c2ccc(Cl)cc2)c(-c2ccc3nc(NC(=O)c4ccnc(F)c4)cn3n2)n1C | -0.28

Please examine the following record next.
Short answer please: log10 of IC50, CK1δ (Homo sapiens (Human)), entry O=C(Nc1cn2nc(-c3c(-c4ccc(F)cc4)ncn3CCn3cccn3)ccc2n1)c1ccnc(F)c1
0.05

###

Quick note: these are IC50 numbers for system: CK1ε (Homo sapiens (Human), UniProt P49674)
Sequence (P49674 whole entry): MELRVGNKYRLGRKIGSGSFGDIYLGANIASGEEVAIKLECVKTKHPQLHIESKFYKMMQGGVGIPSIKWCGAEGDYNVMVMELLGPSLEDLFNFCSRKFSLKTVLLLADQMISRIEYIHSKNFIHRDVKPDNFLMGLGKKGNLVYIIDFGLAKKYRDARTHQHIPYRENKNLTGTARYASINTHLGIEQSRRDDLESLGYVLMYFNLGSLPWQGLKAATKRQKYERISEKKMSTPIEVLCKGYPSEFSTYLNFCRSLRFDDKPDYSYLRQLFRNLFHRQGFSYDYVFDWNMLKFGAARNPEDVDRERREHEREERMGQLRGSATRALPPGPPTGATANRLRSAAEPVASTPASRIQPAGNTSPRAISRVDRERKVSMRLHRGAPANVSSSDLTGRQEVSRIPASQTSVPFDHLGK
Give the quantity in nM, number only.

Cc1nc(-c2ccc(F)cc2)c(-c2ccc3nc(NC(=O)c4cncs4)cn3n2)n1C [Compound 303] | 4.4
O=C(Nc1cn2nc(-c3c(-c4ccc(F)cc4)nc(C4CC4)n3C3CCN(Cc4ccon4)CC3)ccc2n1)c1cccc(-c2cccnc2)c1 | 11
O=C(Nc1cn2nc(-c3c(-c4ccc(F)cc4)nc4ccccn34)ccc2n1)c1cccc(-c2cncnc2)c1 | 4.35
O=C(Nc1cn2nc(-c3c(-c4ccc(F)cc4)nc4n3CCNC4)ccc2n1)c1ccnc(N2CCOCC2)c1 | 3.7
O=C(Nc1cn2nc(-c3c(-c4ccc(F)cc4)ncn3C3CCN(C[C@H](O)C(F)(F)F)CC3)ccc2n1)c1ccnc(F)c1 | 0.305
O=C(Nc1cn2nc(-c3c(-c4ccc(F)cc4)nc4ccccn34)ccc2n1)c1csnn1 | 47.4
O=C(Nc1cn2nc(-c3c(-c4ccc(F)cc4)ncn3C3CCN(C(=O)c4ccc(F)cc4)CC3)ccc2n1)c1ccnc(F)c1 | 1.56
CCCn1cnc(-c2ccc(F)cc2)c1-c1ccc2nc(NC(=O)c3ccnc(F)c3)cn2n1 | 2.57
O=C(Nc1cn2nc(-c3c(-c4ccc(F)cc4)ncn3CCc3cn[nH]c3)ccc2n1)c1ccnc(F)c1 | 0.719
CC1(NC(=O)N2CCn3c(nc(-c4ccc(F)cc4)c3-c3ccc4nc(NC(=O)c5ccnc(F)c5)cn4n3)C2)CC1 | 4.5

Please give the measured IC50 for this compound: O=C(CN1CCOCC1)Nc1cn2nc(-c3c(-c4ccc(F)cc4)nc4ccccn34)ccc2n1
42.2

Form field: reported IC50 of Cc1nc(-c2ccc(F)cc2)c(-c2ccc3nc(NC(=O)c4ccc(CN5CCCC5)cc4)cn3n2)n1C
10.6

# get_value(readout='IC50', item= Cc1nc(-c2ccc(F)cc2)c(-c2ccc3nc(NC(=O)c4cnc5ccccc5n4)cn3n2)n1C )
8.37

Entry O=C(Nc1cn2nc(-c3c(-c4ccc(F)cc4)nc(C4CC4)n3C3CCN(Cc4ccon4)CC3)ccc2n1)c1ccnc(F)c1 : reported IC50 = ?
6.41

Consider the compound Cc1nc(-c2ccc(F)cc2)c(-c2ccc3nc(NC(=O)c4ccc[nH]4)cn3n2)n1C and give its measured IC50.
3.92

###

# TESTED SYSTEM: CK1ε (Homo sapiens (Human))
Counter-ions that a name gives are not always drawn.
VALUE KIND: IC50 (nM)
# number only, unit nM dropped from output

Please review the entries below; each comes with its answer.
Cc1nc(-c2ccc(F)cc2)c(-c2ccc3nc(NC(=O)c4c[nH]c5ccccc45)cn3n2)n1C | 4.89
O=C(Nc1cn2nc(-c3c(-c4ccc(F)cc4)nc4n3CCN(C(=O)NCCC(F)(F)F)C4)ccc2n1)c1ccnc(F)c1 | 6.4
O=C(Nc1cn2nc(-c3c(-c4ccc(F)cc4)nc4n3CCC4)ccc2n1)c1cccc(-c2cccnc2)c1 | 1.3
O=C(Nc1cn2nc(-c3c(-c4ccc(F)cc4)ncn3C3CCN(C[C@H](O)C(F)(F)F)CC3)ccc2n1)c1cncs1 | 0.182
O=C(Nc1cn2nc(-c3c(-c4ccc(F)cc4)nc4ccccn34)ccc2n1)c1cc(F)nc(F)c1 | 5.24
COc1ccc(-c2nc(C(=O)Nc3cn4nc(-c5c(-c6ccc(F)cc6)nc6ccccn56)ccc4n3)cs2)cc1 [Compound 189, HCl] | 32.1

We next turn to a different molecule, shown below.
Any idea what IC50 was measured for Cn1nccc1C(=O)Nc1cn2nc(-c3c(-c4ccc(F)cc4)nc4ccccn34)ccc2n1 ?
12.1

###

The compounds below have reported pIC50 for CK1δ (Homo sapiens (Human)).
Please treat pIC50 as minus the base-10 logarithm of the molar concentration.

Some entries whose results are on file:
Cc1oncc1C(=O)N1CCC(n2cnc(-c3ccc(F)cc3)c2-c2ccc3nc(NC(=O)c4ccnc(F)c4)cn3n2)CC1 | 9.50
Cc1nc(-c2ccc(F)cc2)c(-c2ccc3nc(NC(=O)c4cccc5ccncc45)cn3n2)n1C | 9.60
O=C(Nc1cn2nc(-c3c(-c4ccc(F)cc4)ncn3Cc3cc(C4CC4)[nH]n3)ccc2n1)c1ccnc(F)c1 | 8.02
Cc1nc(-c2ccc(F)cc2)c(-c2ccc3nc(NC(=O)c4ccnc(F)c4)cn3n2)n1CCF | 9.96

Name the recorded pIC50 for O=C(CO)Nc1cn2nc(-c3c(-c4ccc(F)cc4)ncn3CCN3CCOCC3)ccc2n1 .
8.33

Look up pIC50 for this compound: O=C(Nc1cn2nc(-c3c(-c4ccc(F)cc4)ncn3C3CCN(CCN4CCOCC4)CC3)ccc2n1)c1ccnc(F)c1
9.74

Any idea what its pIC50 is? The compound is Cc1c(C(=O)Nc2cn3nc(-c4c(-c5ccc(F)cc5)nc(C)n4C)ccc3n2)cnn1C
9.12

###

# TESTED SYSTEM: CK1δ (Homo sapiens (Human), UniProt P48730)
# Sequence (P48730 whole entry): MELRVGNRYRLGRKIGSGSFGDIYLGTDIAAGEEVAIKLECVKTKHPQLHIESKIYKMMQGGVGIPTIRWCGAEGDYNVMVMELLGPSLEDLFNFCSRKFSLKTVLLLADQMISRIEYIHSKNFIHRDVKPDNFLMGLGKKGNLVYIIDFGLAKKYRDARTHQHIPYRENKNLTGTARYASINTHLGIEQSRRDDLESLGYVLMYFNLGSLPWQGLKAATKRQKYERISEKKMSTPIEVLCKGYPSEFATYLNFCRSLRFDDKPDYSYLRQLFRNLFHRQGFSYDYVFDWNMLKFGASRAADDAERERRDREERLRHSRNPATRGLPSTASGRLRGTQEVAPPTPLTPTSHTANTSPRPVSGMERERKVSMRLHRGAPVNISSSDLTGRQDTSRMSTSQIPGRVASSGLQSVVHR
Recorded IC50 values for a group of compounds are listed next.
Hi! Could you send only the number? It should be in nM, unit omitted.

// below: answered compounds
Cc1nc(-c2ccc(F)cc2)c(-c2ccc3nc(NC(=O)c4ccnc(F)c4)cn3n2)n1CC(F)F | 0.384
O=C(Nc1cn2nc(-c3c(-c4ccc(F)cc4)nc(C4CC4)n3CC(F)F)ccc2n1)c1ccnc(F)c1 | 0.245
Cn1ccc(C(=O)N2CCC(n3cnc(-c4ccc(F)cc4)c3-c3ccc4nc(NC(=O)c5ccnc(F)c5)cn4n3)CC2)n1 | 0.213
Cc1nc(-c2ccc(F)cc2)c(-c2ccc3nc(NC(=O)c4sc(-c5cccnc5)nc4C(F)(F)F)cn3n2)n1C | 1.04
Cc1nc(-c2ccc(Cl)cc2)c(-c2ccc3nc(NC(=O)c4ccnc(F)c4)cn3n2)n1CC(F)F | 0.208

Can you look up the measured IC50 of O=C(Nc1cn2nc(-c3c(-c4ccc(F)cc4)nc4ccccn34)ccc2n1)c1ccon1 for me?
1.59

So what does the record say about IC50 for Cc1nc(-c2ccc(F)cc2)c(-c2ccc3nc(NC(=O)c4ccc(Cl)cc4F)cn3n2)n1C ?
0.66

###

# TESTED SYSTEM: CK1δ (Homo sapiens (Human), UniProt P48730)
VALUE KIND: IC50 (nM)
Please respond with the number in nM and leave the unit unwritten.

# count of solved cases: 3
CN1CCN(c2ccc3nc(-c4ccc(F)cc4)c(-c4ccc5nc(NC(=O)c6ccncc6)cn5n4)n3n2)CC1 [Compound 223] | 6.85
O=C(Nc1cn2nc(-c3c(-c4ccc(F)cc4)ncn3C3CN(CCO)C3)ccc2n1)c1ccncc1 [Compound 159] | 1.31
CCn1c(C)nc(-c2ccc(Cl)cc2)c1-c1ccc2nc(NC(=O)c3ccnc(F)c3)cn2n1 [Compound 292] | 0.208

Hi! What's the reported IC50 for Cc1nc(-c2ccc(F)c(F)c2)c(-c2ccc3nc(NC(=O)c4ccnc(F)c4)cn3n2)n1CCF [Compound 290] on CK1δ (Homo sapiens (Human), UniProt P48730)?
0.412

Quick check: IC50 on CK1δ (Homo sapiens (Human), UniProt P48730), item O=C(Nc1cn2nc(-c3c(-c4ccc(F)cc4)ncn3C3CCN(CCCF)CC3)ccc2n1)c1ccnc(F)c1 [Compound 33] ?
0.378

Request - read-out IC50 | tested on CK1δ (Homo sapiens (Human), UniProt P48730) | compound O=C(Nc1cn2nc(-c3c(-c4ccc(F)cc4)ncn3CCN3CCCC3=O)ccc2n1)c1ccnc(F)c1 [Compound 272]
1.65

###

CK1ε (Homo sapiens (Human), UniProt P49674) measurements of IC50, listed per entry.
Please state the figure in nM; there is no need to write the unit.

Here's what some known entries look like.
Cc1nc(-c2ccc(Cl)cc2)c(-c2ccc3nc(NC(=O)c4ccnc(F)c4)cn3n2)n1CCF | 1.28
O=C(Nc1cn2nc(-c3c(-c4ccc(F)cc4)ncn3C3CCN(Cc4ccncc4)CC3)ccc2n1)c1ccnc(F)c1 | 3.06
O=C(Nc1cn2nc(-c3c(-c4ccc(F)cc4)ncn3C3CCN(C[C@@H](O)C(F)(F)F)CC3)ccc2n1)c1cc(F)nc(F)c1 | 5.68

Record O=C(Nc1cn2nc(-c3c(-c4ccc(F)cc4)ncn3C3CCCCC3)ccc2n1)c1ccnc(F)c1 : what is its IC50 with CK1ε (Homo sapiens (Human), UniProt P49674)?
2.29

Given the entry CC(C)COC(=O)N1CCC(n2cnc(-c3ccc(F)cc3)c2-c2ccc3nc(NC(=O)c4ccnc(F)c4)cn3n2)CC1 , what IC50 was observed with CK1ε (Homo sapiens (Human), UniProt P49674)?
1.91

Observed IC50 on CK1ε (Homo sapiens (Human), UniProt P49674) for O=C(Nc1cn2nc(-c3c(-c4ccc(F)cc4)ncn3C3CCN(C(=O)CC(F)(F)F)CC3)ccc2n1)c1ccncc1 , please.
1.17

// fetch CK1ε (Homo sapiens (Human), UniProt P49674) IC50 for O=C(Nc1cn2nc(-c3c(-c4ccc(F)cc4)nc4ccccn34)ccc2n1)c1ccnc(O)c1
4.87

Which IC50 is reported with CK1ε (Homo sapiens (Human), UniProt P49674) for this entry: O=C(Nc1cn2nc(-c3c(-c4ccc(F)cc4)nc(C4CC4)n3C3CCNCC3)ccc2n1)c1ccnc(F)c1 ?
8.27

IC50 of O=C(Nc1cn2nc(-c3c(-c4ccc(F)cc4)nc4n3CCC4)ccc2n1)c1ccnc(F)c1 on CK1ε (Homo sapiens (Human), UniProt P49674)?
2
